This collection of values is drawn from patent US11306079B2.

# ASSAYED SYSTEM: PI3Kγ (p110γ) Recombinant Human Protein (Homo sapiens (Human), UniProt P48736)
# Sequence (P48736 whole entry): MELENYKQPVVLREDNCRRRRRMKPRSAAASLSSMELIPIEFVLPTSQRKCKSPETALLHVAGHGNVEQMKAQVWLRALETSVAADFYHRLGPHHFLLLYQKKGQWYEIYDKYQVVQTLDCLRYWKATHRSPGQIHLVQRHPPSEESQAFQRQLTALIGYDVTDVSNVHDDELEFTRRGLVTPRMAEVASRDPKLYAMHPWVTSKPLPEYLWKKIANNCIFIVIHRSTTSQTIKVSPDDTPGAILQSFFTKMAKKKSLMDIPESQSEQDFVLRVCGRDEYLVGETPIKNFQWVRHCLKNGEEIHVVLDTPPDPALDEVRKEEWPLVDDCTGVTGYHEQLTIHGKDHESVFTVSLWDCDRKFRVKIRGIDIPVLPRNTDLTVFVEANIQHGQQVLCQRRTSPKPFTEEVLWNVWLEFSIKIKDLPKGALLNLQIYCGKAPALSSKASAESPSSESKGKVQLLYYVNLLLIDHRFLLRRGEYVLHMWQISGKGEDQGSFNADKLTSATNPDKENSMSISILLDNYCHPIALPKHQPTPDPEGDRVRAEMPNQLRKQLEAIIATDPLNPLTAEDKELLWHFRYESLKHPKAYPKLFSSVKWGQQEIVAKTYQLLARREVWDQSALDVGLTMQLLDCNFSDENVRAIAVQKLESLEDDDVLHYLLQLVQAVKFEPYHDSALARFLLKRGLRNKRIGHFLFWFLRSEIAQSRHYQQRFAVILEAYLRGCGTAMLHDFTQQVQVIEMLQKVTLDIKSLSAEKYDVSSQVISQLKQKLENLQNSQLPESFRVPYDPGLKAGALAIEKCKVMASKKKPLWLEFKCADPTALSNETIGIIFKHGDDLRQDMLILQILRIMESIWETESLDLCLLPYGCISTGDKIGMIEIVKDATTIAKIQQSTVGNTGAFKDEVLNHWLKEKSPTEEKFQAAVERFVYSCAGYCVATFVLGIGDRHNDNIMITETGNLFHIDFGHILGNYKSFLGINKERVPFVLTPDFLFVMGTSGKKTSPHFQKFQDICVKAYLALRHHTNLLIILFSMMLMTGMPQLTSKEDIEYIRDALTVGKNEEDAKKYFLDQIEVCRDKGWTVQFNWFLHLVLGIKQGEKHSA
# PROCEDURE TEXT: PI3K-γ Scintillation Proximity Assay
# RUN PARAMETERS: 20 μM PIP2, 2 μM ATP, 13 nM PI3Kγ, 120 min, room temperature
Counter-ions that a name gives are not always drawn.
Assignment: determine reported IC50 for the given molecules.

The reported IC50 of the molecule `O=C(O)C(F)(F)F.[2H]C([2H])([2H])c1ccc(S(=O)(=O)NC23CNC(C2)C3)cc1-c1cnc(N)c(-c2cnc(C3CC3)s2)n1` was ≤ 100 nM

Kindly note the recorded IC50 for Cc1ccc(S(=O)(=O)NC23CCC(C#N)(C2)C3)cc1-c1cnc(N)c(-c2ncn(C)n2)n1 [Example 46, Trifluoroacetate Salt] , which is ≤ 100 nM

The recorded IC50 for Cc1ccc(S(=O)(=O)NC23CC(C#N)(C2)C3)cc1-c1cnc(N)c(-c2cn(C)nc2C)n1 [Example 10, Trifluoroacetate Salt] is ≤ 100 nM

====

# ASSAYED SYSTEM: PI3Kδ (p110δ/p85α) Recombinant Human Protein (Homo sapiens (Human), UniProt O00329)
# Sequence (O00329 whole entry): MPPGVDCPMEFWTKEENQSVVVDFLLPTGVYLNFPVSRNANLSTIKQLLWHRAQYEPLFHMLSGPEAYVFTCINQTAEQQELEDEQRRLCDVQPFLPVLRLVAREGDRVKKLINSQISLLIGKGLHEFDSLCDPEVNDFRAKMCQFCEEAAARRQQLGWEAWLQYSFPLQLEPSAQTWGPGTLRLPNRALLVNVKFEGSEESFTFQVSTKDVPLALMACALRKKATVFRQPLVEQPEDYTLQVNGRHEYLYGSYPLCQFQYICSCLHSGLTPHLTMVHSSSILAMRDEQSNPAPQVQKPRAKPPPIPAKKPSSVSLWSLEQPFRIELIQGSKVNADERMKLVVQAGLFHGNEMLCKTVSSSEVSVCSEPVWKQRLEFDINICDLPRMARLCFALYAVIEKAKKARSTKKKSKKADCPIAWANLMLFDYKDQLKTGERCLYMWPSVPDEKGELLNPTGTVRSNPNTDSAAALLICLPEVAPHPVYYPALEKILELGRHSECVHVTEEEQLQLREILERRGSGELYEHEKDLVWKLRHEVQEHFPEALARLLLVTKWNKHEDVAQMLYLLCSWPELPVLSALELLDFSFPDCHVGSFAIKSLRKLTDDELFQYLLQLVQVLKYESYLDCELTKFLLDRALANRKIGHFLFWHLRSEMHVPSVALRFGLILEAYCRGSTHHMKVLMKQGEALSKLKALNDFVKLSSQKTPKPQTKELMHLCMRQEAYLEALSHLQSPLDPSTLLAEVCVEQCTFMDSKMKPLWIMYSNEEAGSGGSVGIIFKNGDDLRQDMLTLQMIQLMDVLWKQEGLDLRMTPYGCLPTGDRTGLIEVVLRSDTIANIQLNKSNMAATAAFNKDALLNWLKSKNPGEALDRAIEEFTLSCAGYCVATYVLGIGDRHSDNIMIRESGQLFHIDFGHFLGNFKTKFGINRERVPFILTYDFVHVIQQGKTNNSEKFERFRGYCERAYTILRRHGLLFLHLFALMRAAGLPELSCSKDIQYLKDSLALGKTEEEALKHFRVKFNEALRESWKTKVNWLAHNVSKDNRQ
# Sequence (P27986 whole entry partner): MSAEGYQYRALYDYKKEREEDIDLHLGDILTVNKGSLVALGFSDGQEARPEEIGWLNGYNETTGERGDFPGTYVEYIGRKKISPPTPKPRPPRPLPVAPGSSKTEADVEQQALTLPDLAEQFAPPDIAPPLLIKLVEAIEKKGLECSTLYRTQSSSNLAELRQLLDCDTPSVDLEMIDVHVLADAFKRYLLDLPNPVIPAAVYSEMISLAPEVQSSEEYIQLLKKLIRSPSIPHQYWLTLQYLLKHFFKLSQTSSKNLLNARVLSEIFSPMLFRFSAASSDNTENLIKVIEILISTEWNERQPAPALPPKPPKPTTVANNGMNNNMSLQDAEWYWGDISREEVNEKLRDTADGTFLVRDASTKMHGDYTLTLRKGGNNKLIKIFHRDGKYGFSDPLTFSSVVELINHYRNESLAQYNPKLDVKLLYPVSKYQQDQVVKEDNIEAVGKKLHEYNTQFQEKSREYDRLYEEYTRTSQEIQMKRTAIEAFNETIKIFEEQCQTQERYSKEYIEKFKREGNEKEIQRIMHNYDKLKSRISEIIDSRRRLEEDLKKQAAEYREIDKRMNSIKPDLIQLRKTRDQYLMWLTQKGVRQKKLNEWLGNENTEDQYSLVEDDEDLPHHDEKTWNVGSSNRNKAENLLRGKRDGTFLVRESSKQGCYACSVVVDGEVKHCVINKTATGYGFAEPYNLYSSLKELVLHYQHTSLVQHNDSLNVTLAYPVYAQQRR
# PROCEDURE TEXT: PI3Kδ Scintillation Proximity Assay
# RUN PARAMETERS: 20 μM PIP2, 2 μM ATP, 3.4 nM PI3Kδ, 120 min, room temperature
Where a name gives a salt, the structure may show the parent alone.
Kindly state IC50 for each of the entries shown.

IC50 in this record for `O=C(O)C(F)(F)F.[2H]C([2H])([2H])c1ccc(S(=O)(=O)NC23CNC(C2)C3)cc1-c1cnc(N)c(-n2cncn2)n1` : ≤ 500 nM

Consider `Cc1ccc(S(=O)(=O)NC23COC(CO)(C2)C3)cc1-c1cnc(N)c(-c2cnc(C3CC3)s2)c1` . Its measured IC50 is ≤ 500 nM

# IC50 of Cc1ccc(S(=O)(=O)NC23CCC(CO)(CC2)OC3)cc1-c1cnc(N)c(-c2ccncc2C#N)n1 [Example 22, trifluoroacetate salt] = ≥ 2000 nM

Entry Cc1ncc(-c2nc(-c3cc(S(=O)(=O)NC45CCC(CO)(C4)C5)ccc3C)cnc2N)s1 [Example 5, trifluoroacetate salt] , IC50 reported as ≤ 100 nM

// IC50 value for Cc1ccc(S(=O)(=O)NC23CC(CO)(C2)C3)cc1-c1cnc(N)c(-n2cncn2)n1 [Example 24, trifluoroacetate salt] : ≤ 500 nM

Lab book: IC50 of [2H]C([2H])([2H])c1ccc(S(=O)(=O)NC23CCC(C#N)(C2)C3)cc1-c1cnc(N)c(-c2cnc(N(C)C)nc2)n1 [Example 67, trifluoroacetate salt] noted as ≤ 500 nM

====

# ASSAYED SYSTEM: PI3Kδ (p110δ/p85α) Recombinant Human Protein (Homo sapiens (Human), UniProt O00329)
# PROCEDURE TEXT: PI3Kδ Scintillation Proximity Assay
# RUN PARAMETERS: 20 μM PIP2, 2 μM ATP, 3.4 nM PI3Kδ, 120 min, room temperature
Structures can show the parent of a compound that is named as a salt.
REPORTED PROPERTY: IC50

Form: compound = [2H]C([2H])([2H])c1ccc(S(=O)(=O)NC23CCC(C#N)(C2)C3)cc1-c1cnc(N)c(-c2cnc(C)o2)n1 [Example 66, trifluoroacetate salt] ; IC50 = ≤ 0.1 µM

Please fill in: IC50 reported for CC(=O)NC12CC(NS(=O)(=O)c3ccc(C)c(-c4cnc(N)c(-n5cncn5)n4)c3)(C1)C2 [Example 40, Trifluoroacetate Salt] = ≤ 0.5 µM

Documented IC50 of [2H]C([2H])([2H])c1ccc(S(=O)(=O)NC23CCC(O)(C2)C3)cc1-c1cnc(N)c(-c2ccncn2)n1 [Example 80, trifluoroacetate salt] : ≤ 0.1 µM

IC50 reported for this compound Cc1ncc(-c2nc(-c3cc(S(=O)(=O)NC45COC(C(C)O)(C4)C5)ccc3C)cnc2N)s1 (stereo not shown) [Example 8, trifluoroacetate salt] : ≤ 0.1 µM

get_value(item= Cc1ncc(-c2nc(-c3cc(S(=O)(=O)NC45CCC(C#N)(C4)C5)ccc3C)cnc2N)s1 [Example 2, trifluoroacetate salt] , readout=IC50) returns ≤ 0.1 µM

So for `Cc1ccc(S(=O)(=O)NC23COC(CO)(C2)C3)cc1-c1cnc(N)c(-c2cn(C)nc2C)c1` , the logged IC50 turned out to be ≤ 0.5 µM

// `O=C(O)C(F)(F)F.[2H]C([2H])([2H])c1ccc(S(=O)(=O)NC23CNC(C2)C3)cc1-c1cnc(N)c(-c2cnc(C)s2)n1` : IC50 value = ≤ 0.1 µM

Per the record, [2H]C([2H])([2H])c1ccc(S(=O)(=O)NC23CCC(C#N)(C2)C3)cc1-c1cnc(N)c(-c2ccn(C)n2)n1 [Example 63, Trifluoroacetate Salt] has IC50 of ≤ 0.1 µM

Recorded IC50 (compound [2H]C([2H])([2H])c1ccc(S(=O)(=O)NC23CCC(O)(C2)C3)cc1-c1cnc(N)c(-c2cnco2)n1 [Example 74, trifluoroacetate salt] ): ≤ 0.5 µM

Reported IC50 ( Cc1ccc(S(=O)(=O)NC23CCC(CO)(CC2)OC3)cc1-c1cnc(N)c(-c2ccnc(C#N)c2)n1 [Example 19, trifluoroacetate salt] ) = ≤ 0.1 µM

# compound Cc1ccc(S(=O)(=O)NC23CCC(C#N)(C2)C3)cc1-c1cnc(N)c(-c2ncn(C)n2)n1 [Example 46, Trifluoroacetate Salt] ; its IC50 = ≤ 0.1 µM

The value of IC50 measured for the compound [2H]C([2H])([2H])c1ccc(S(=O)(=O)NC23CC(C#N)(C2)C3)cc1-c1cnc(N)c(-n2cncn2)n1 [Example 48, Trifluoroacetate Salt] turned out to be ≤ 0.5 µM

Form: compound = Cc1cc(-c2nc(-c3cc(S(=O)(=O)NC45CCC(CO)(CC4)OC5)ccc3C)cnc2N)ccn1 [Example 18, Trifluoroacetate Salt] ; IC50 = ≤ 0.5 µM

IC50 reading for `Cc1ncc(-c2cc(-c3cc(S(=O)(=O)NC45COC(CO)(C4)C5)ccc3C)cnc2N)s1` : ≤ 0.5 µM

// Cc1ccc(S(=O)(=O)NC23CC(C#N)(C2)C3)cc1-c1cnc(N)c(-n2ccnn2)n1 [Example 43, Trifluoroacetate Salt] : IC50 value = ≤ 0.5 µM

For record [2H]C([2H])([2H])c1ccc(S(=O)(=O)NC23CC(CO)(C2)C3)cc1-c1cnc(N)c(-n2cncn2)n1 [Example 49, Trifluoroacetate Salt] the listed IC50 is ≤ 0.1 µM

`[2H]C([2H])([2H])c1ccc(S(=O)(=O)NC23CCN(CC2)C3)cc1-c1cnc(N)c(-c2ncn(C([2H])([2H])[2H])n2)n1` has a reported IC50 of ≤ 0.1 µM

The compound Cc1ccc(S(=O)(=O)NC23CC(C(=O)N4CCC4)(C2)C3)cc1-c1cnc(N)c(-n2cncn2)n1 [Example 34, trifluoroacetate salt] showed IC50 equal to ≤ 0.5 µM

The recorded IC50 for Cc1ccc(S(=O)(=O)NC23COC(C)(C2)C3)cc1-c1cnc(N)c(-c2cn(C)nc2C)n1 [Example 12, trifluoroacetate salt] is ≤ 0.5 µM

Field IC50 (entry `Cc1ccc(S(=O)(=O)NC23CCC(C#N)(C2)C3)cc1-c1cnc(N)c(-c2cn(C)nc2C)c1` ) reads ≤ 0.5 µM

Item: Cc1ccc(S(=O)(=O)NC23CCC(C#N)(C2)C3)cc1-c1cnc(N)c(-n2cncn2)n1 [Example 28, trifluoroacetate salt] | IC50: ≤ 0.5 µM

`Cc1ncc(-c2cc(-c3cc(S(=O)(=O)NC45CCC(C#N)(C4)C5)ccc3C)cnc2N)s1` has a reported IC50 of ≤ 0.1 µM

Summary for this compound, Cc1ncc(-c2nc(-c3cc(S(=O)(=O)NC45CC(CO)(C4)C5)ccc3C)cnc2N)s1 [Example 3, trifluoroacetate salt] : IC50 is ≤ 0.1 µM

Measured IC50, Cc1ccc(S(=O)(=O)NC23CC(C(=O)N(C)C)(C2)C3)cc1-c1cnc(N)c(-n2cncn2)n1 [Example 33, trifluoroacetate salt] : ≤ 0.5 µM

The recorded IC50 for entry Cc1ccc(S(=O)(=O)NC23CCC(O)(CC2)C3)cc1-c1cnc(N)c(-c2ccncc2)n1 [Example 17, Trifluoroacetate Salt] equals ≤ 0.5 µM
